Source of measurements: ChEMBL document CHEMBL1799997

Assay: Clearance in Sprague-Dawley rat
Type: ADME, organism-based
Conditions: in vivo

Smiles Repr: COC(=O)N1CCN(Cc2cccc(NC(=O)Nc3ccc(C)nc3)c2F)CC1
Unit Of Measure: mL/min/kg
clearance: 22

* * *

Test: Clearance in Beagle dog heart failure model
Format: ADME, organism-based, Canis lupus familiaris
Details: in vivo
Property Name: clearance (mL/min/kg)

Smiles Repr: COC(=O)N1CCN(Cc2cccc(NC(=O)Nc3ccc(C)nc3)c2F)CC1
Property Name: clearance
Quantitative Readout: 7.2

* * *

Test: Ratio of extraction in human Liver microsomes
Type: ADME, Microsome
Conditions: read-out: ERH
Property Name: hepatic extraction ratio

Smiles Repr: COC(=O)N1CCN(Cc2cccc(NC(=O)Nc3ccc(C)nc3)c2F)CC1
Qualifier Operator: <
Quantitative Readout: 0.2
--
Smiles Repr: COC(=O)N1CCC(Oc2cc(F)cc(NC(=O)Nc3ccc(C)nc3)c2)CC1
Qualifier Operator: =
Quantitative Readout: 0.3
--
Smiles Repr: COC(=O)N1CCN(Cc2cc(F)cc(NC(=O)Nc3ccc(C)nc3)c2)CC1
Qualifier Operator: <
Quantitative Readout: 0.2
--
Smiles Repr: CN(C)S(=O)(=O)N1CC[C@@H](Oc2cc(F)cc(NC(=O)Nc3cccnc3)c2)C1
Qualifier Operator: =
Quantitative Readout: 0.9
--
Smiles Repr: COC(=O)N1CCC[C@@H](Oc2cc(F)cc(NC(=O)Nc3cccnc3)c2)C1
Qualifier Operator: =
Quantitative Readout: 0.5
--
Smiles Repr: CC(=O)N1CCC[C@@H](Oc2cc(F)cc(NC(=O)Nc3cccnc3)c2)C1
Qualifier Operator: =
Quantitative Readout: 0.5
--
Smiles Repr: COC(=O)N1CCN(Cc2cccc(NC(=O)Nc3ccc(C)nc3)c2)CC1
Qualifier Operator: <
Quantitative Readout: 0.2
--
Smiles Repr: CC(=O)N1CCC[C@@H](Oc2cc(F)cc(NC(=O)Nc3ccc(C)nc3)c2)C1
Qualifier Operator: =
Quantitative Readout: 0.6

* * *

Assay: Bioavailability in Beagle dog heart failure model
Assay type: ADME, organism-based, Canis lupus familiaris
Details: in vivo

Compound: COC(=O)N1CCN(Cc2cccc(NC(=O)Nc3ccc(C)nc3)c2F)CC1 [OMECAMTIV MECARBIL]
bioavailability: 80%

* * *

System: Aorta
Experiment: Inhibition of vasodilation in Sprague-Dawley rat aortic ring
Format: functional
R50: recorded values
Property Name: R50

Smiles Repr: CC(=O)N1CCC[C@@H](Oc2cc(F)cc(NC(=O)Nc3ccc(C)nc3)c2)C1
Property Name: R50
Result: 2.4 µM

Smiles Repr: COC(=O)N1CCN(Cc2cc(F)cc(NC(=O)Nc3ccc(C)nc3)c2)CC1
Property Name: R50
Result: >25 µM

Smiles Repr: COC(=O)N1CCC(Oc2cc(F)cc(NC(=O)Nc3ccc(C)nc3)c2)CC1
Property Name: R50
Result: 11 µM

Smiles Repr: COC(=O)N1CCN(Cc2cccc(NC(=O)Nc3ccc(C)nc3)c2F)CC1
Property Name: R50
Result: >25 µM

Smiles Repr: COC(=O)N1CCN(Cc2cccc(NC(=O)Nc3ccc(C)nc3)c2)CC1
Property Name: R50
Result: 15 µM

Smiles Repr: CC(=O)N1CCC[C@H](Oc2cc(F)cc(NC(=O)Nc3cccnc3)c2)C1
Property Name: R50
Result: >25 µM

Smiles Repr: CN(C)S(=O)(=O)N1CCC[C@@H](Oc2cc(F)cc(NC(=O)Nc3cccnc3)c2)C1
Property Name: R50
Result: 6.6 µM

Smiles Repr: CN(C)S(=O)(=O)N1CC[C@@H](Oc2cc(F)cc(NC(=O)Nc3cccnc3)c2)C1
Property Name: R50
Result: >25 µM

Smiles Repr: CC(=O)N1CCC[C@@H](Oc2cc(F)cc(NC(=O)Nc3cccnc3)c2)C1
Property Name: R50
Result: 1.7 µM

Smiles Repr: COC(=O)N1CCC[C@@H](Oc2cc(F)cc(NC(=O)Nc3cccnc3)c2)C1
Property Name: R50
Result: 8 µM

* * *

Species: Rattus norvegicus
Assay: Activation of Sprague-Dawley rat myosin in cardiomyocytes assessed as compound concentration resulting in 40% increase in ATPase activity at calcium concentrations that produced 25-50% of maximum calcium dependent activation
Format: cell-based
Short version: Activity at least 1 µM is 1.0, less is 0.0.

Compound: CN(C)S(=O)(=O)N1CCC[C@@H](Oc2cc(F)cc(NC(=O)Nc3cccnc3)c2)C1
Qualitative Label: 0.0

Compound: CC(=O)N1CCC[C@H](Oc2cc(F)cc(NC(=O)Nc3cccnc3)c2)C1
Qualitative Label: 1.0

Compound: COc1ccc(NC(=O)Nc2cc(F)cc(Oc3cccnc3)c2)cc1
Qualitative Label: 0.0

Compound: O=C(Nc1cccnc1)Nc1cc(F)cc(Oc2cccnc2)c1
Qualitative Label: 1.0

Compound: COc1ccc(NC(=O)Nc2cc(F)cc(Oc3cccnc3)c2)cn1
Qualitative Label: 1.0

Compound: CC(=O)N1CCC[C@@H](Oc2cc(F)cc(NC(=O)Nc3ccc(C)nc3)c2)C1
Qualitative Label: 1.0

Compound: COC(=O)N1CCN(Cc2cccc(NC(=O)Nc3ccc(C)nc3)c2F)CC1 [OMECAMTIV MECARBIL]
Qualitative Label: 0.0

Compound: COC(=O)N1CCC[C@@H](Oc2cc(F)cc(NC(=O)Nc3cccnc3)c2)C1
Qualitative Label: 1.0
